Tested on: OVCAR-8 ovarian
Assay: NCI-60 one-dose screen, 48 h (100 = growth as untreated, 0 = no growth, -100 = all killed)
Conditions: 10 µM
Experimental: Growth inhibition of the OVCAR-8 human tumor cell line is measured as a screen for anti-cancer activity. Cells are grown in 96 well plates and exposed to the test compound for 48 hours. Compounds are tested at a single concentration, which is 10^-5 M for most compounds. The reported endpoint is percent growth (GI% or GIPRCNT), where numbers from 0 - 100% represent growth inhibition, and numbers from -100% - 0 represent cell death. For example, a value of 40 represents 60% growth inhibition. […]
The panel holds about 83,000 compounds, 20% with a hit somewhere; the sample as a whole holds those more often.
Field: growth. Provide a value for each of the compounds that follow.
Please respond with the number in % and leave the unit unwritten.

Query: Reported growth for OVCAR-8 ovarian, given `Cc1ccc(NCC(=O)Nn2c(COc3ccccc3)nc3ccccc3c2=O)cc1` ?
Result: 60.1

Query: Entry CO[C@@H]1CSSC1Cn1nc(-c2ccc(Oc3ccccc3)cc2)c2c(N)ncnc21 (stereo partly drawn) please
Result: 75.5

Query: Entry `N#Cc1ccc(-c2nn(-c3ccc(C(=O)O)cc3)cc2CNc2ccc(Cl)cc2)cc1` please
Result: 74.4

Query: Entry `CN1CCN(Cc2ccc(NC(=O)c3cncc(C#Cc4cnc5ccc(N[C@H]6CCOC6)nn45)c3)cc2C(F)(F)F)CC1` please
Result: -94.4

Query: Entry CN1C(=O)N(C)C2SC(N/N=C/c3cccs3)=NC21 (stereo not drawn) please
Result: 34.4

Query: Entry COc1cc2c(c(OC)c1OC)C(=O)CC(c1cccc(NC(=O)c3cccc(N)c3)c1)O2 (stereo not drawn) please
Result: 55

Query: Entry `COC1=C[C@]23CCC(=O)N2CCc2cc4c(cc2[C@@H]3[C@@H]1OC(=O)CCCC(C)C)OCO4` please
Result: 73.9

Query: Entry `O=S(=O)(Nc1ncccn1)c1ccc(-n2c(-c3ccccc3)nc(-c3ccccc3)c2-c2ccccc2)cc1` please
Result: 97.4

Query: Entry `CO[C@H]1CSS[C@@H]1Cn1nc(-c2ccc(Oc3ccccc3)cc2)c2c(N)ncnc21` please
Result: 48.2

Query: Entry `COC[C@@H](CC(C)C)N=C1N/C(=C\c2ccc3ncsc3c2)C(=O)N1C` please
Result: 17.6

Query: Entry CN1C(=O)N(C)C2SC(N/N=C/c3ccccc3)=NC21 (stereo not drawn) please
Result: 97.1

Query: Entry `Nc1cccnc1/C=N/NC(=S)NCCNC(=O)c1ccc(-n2nc(-c3ccccc3O)nc2-c2ccccc2O)cc1` please
Result: 14.6

Query: Entry `CCOC(=O)CNC(=O)CN(Cc1ccccc1)C(=O)[C@@]1(C)CCC[C@]2(C)[C@H]3CC4C(C(C)C)=C[C@]3(CC[C@H]21)[C@@H]1C(=O)CCC(=O)[C@H]41` please
Result: 58.3

Query: Entry `C=C(c1ccc(OC)c(N)c1)c1cc(C)nc2ccccc12` please
Result: 8.32

Query: Entry `C=C(C)[C@@H]1CC[C@]2(C(=O)OC)CC[C@]3(C)[C@H](CC[C@@H]4[C@@]5(C)CC[C@H](N)C(C)(C)[C@@H]5CC[C@]43C)[C@@H]12` please
Result: -77.4

Query: Entry `CN1CCN(c2ccc(C(=O)/C=C/c3ccc(C#N)cc3)cc2)CC1` please
Result: 92

Query: Entry C=C1CCC2C3(C)COC(c4ccccc4F)OC3CCC2(C)C1C/C=C1/C(=O)OCC1O (stereo not drawn) please
Result: -54.3

Query: Entry `COc1cccc(/C=N/NC(=O)c2ccc3nc(-c4ccc(Cl)cc4)[nH]c3c2)c1O` please
Result: -84.6

###

Tested on: EKVX NSCLC
Experiment: NCI-60 one-dose screen, 48 h
Conditions: 10 µM
This is part of a sample that, as a whole, favours compounds with a hit. Of some 83,000 tested, about 20% had one in any assay. Activity calls are given as the source filed them. The calls were made as follows: active = growth percent below 10; inactive = the rest.
Outcomes you can answer with include only these: active, inactive

Query: Recorded call for `Nc1nc2c(F)c(F)c(F)c(F)c2s1` ?
Result: inactive

Query: Entry `Cc1noc2c(Cc3ccc([N+](=O)[O-])cc3)nn(CC(=O)N/N=C/c3ccc(Cl)cc3)c(=O)c12` please
Result: inactive

Query: Entry `Cc1ccc(/C=C/C(=O)c2ccc(S(=O)(=O)NCCNc3nc(Nc4ccc(F)cc4)nc(N(C)C)n3)cc2)cc1` please
Result: inactive

Query: Entry CN1C(=O)N(C)C2SC(N/N=C/c3ccccc3F)=NC21 (stereo not given) please
Result: inactive

Query: Entry `O=C1NC(=NC23CC4CC(CC(C4)C2)C3)N/C1=C\c1ccc2ncoc2c1` please
Result: active

Query: Entry `CC(=O)Nc1ccc(-n2cnc3cc(-c4ccc(O)cc4)ccc32)cc1F` please
Result: inactive

Query: Entry `COc1cccc(COc2ccc(/C=C3\Oc4cc(O)ccc4C3=O)cc2)c1` please
Result: inactive

Query: Entry `O=c1cc(-c2ccccc2)oc2cc(OCCCCNCc3ccccc3)cc(O)c12` please
Result: inactive

Query: Entry `Cc1ccc(C(C)C)cc1NC(=O)c1ccccc1N(C)C` please
Result: inactive

Query: Entry `C/C(=N\N=C\c1ccc(N(C)C)cc1)c1ccc2c(c1)Nc1ccccc1S2` please
Result: inactive

###

System: MOLT-4 leukemia
Assay: NCI-60 one-dose screen, 48 h (100 = growth as untreated, 0 = no growth, -100 = all killed)
Settings: 10 µM
This is part of a sample that, as a whole, favours compounds with a hit. Of some 83,000 tested, about 20% had one in any assay.
Threshold rule: growth greater than or equal to 40% is 1; below that, -1.

Query: Is growth at least 40%? Consider `Cc1ccc(-c2nc(Nc3ccc(S(N)(=O)=O)cc3)c3ccccc3n2)cc1`
Result: -1

Query: Entry C=C1CCC2C3(C)COC(c4c(F)cccc4F)OC3CCC2(C)C1C/C=C1/C(=O)OCC1O (stereo not given) please
Result: -1

Query: Entry `O=c1[nH]c2ccccc2cc1CSc1ccc(Nc2nccc(-c3ccc4ccccc4c3)n2)cc1` please
Result: 1

Query: Entry `COc1ccc(-c2nc(Nc3ccccc3S(N)(=O)=O)c3ccccc3n2)cc1` please
Result: -1

Query: Entry `N#Cc1c(NC(=O)c2ccc(C(F)(F)F)cc2)sc2c1CCC(=O)C2` please
Result: -1

Query: Entry O=C(c1ccc(Cl)cc1)C1[C@H](c2ccccc2Br)[C@@H](c2ccccc2)NC12C(=O)Nc1ccc(Br)cc12 (stereo not given in full) please
Result: -1

Query: Entry `O=C(NC(=S)N1CCN(c2ncnc3c2cnn3-c2ccccc2)CC1)c1ccc(Cl)cc1` please
Result: 1

Query: Entry C/C(=C\CSc1ccccc1C(=O)O)CCCC(C)CCCC(C)CCCC(C)C (stereo not given) please
Result: -1

Query: Entry `COc1ccc2[nH]c(=O)c(CSc3cccc(N)c3)cc2c1` please
Result: 1

###

System: MALME-3M melanoma
Test: NCI-60 one-dose screen, 48 h
Settings: 10 µM
The panel holds about 83,000 compounds, 20% with a hit somewhere; the sample as a whole holds those more often. Activity calls are given as the source filed them. Rule for the calls: active = growth percent below 10; inactive = the rest.
Outcomes you can answer with include only these: 1.0 = active, 0.0 = inactive

Query: Recorded call for `COC[C@@H](CC(C)C)N=C1NC(=O)/C(=C/c2ccc3ncsc3c2)N1` ?
Result: 1.0

Query: Entry `COc1cc(/C=C/C(=O)c2ccc(NC(=O)CSc3nnc(-c4c[nH]c5ccccc45)n3-c3ccccc3)cc2)cc(OC)c1OC` please
Result: 0.0

Query: Entry `CCOC(=O)CNC(=O)CN(Cc1ccccc1)C(=O)[C@@]1(C)CCC[C@]2(C)[C@H]3CC4C(C(C)C)=C[C@]3(CC[C@H]21)[C@@H]1C(=O)CCC(=O)[C@H]41` please
Result: 0.0

Query: Entry `CN(C)CCNC(=O)OCCCCOc1cc(O)c2c(=O)cc(-c3ccccc3)oc2c1` please
Result: 1.0

Query: Entry `N#Cc1c(Cl)nc(SCc2ccc(F)cc2)nc1-c1ccc(F)cc1` please
Result: 0.0

Query: Entry C#CCNC(=O)CCC(=O)OC[C@]12CC[C@@H](C(=C)C)[C@@H]1C1CC[C@@H]3[C@@]4(C)CCCNC(C)(C)[C@@H]4CC[C@@]3(C)[C@]1(C)CC2 (some centres undefined) please
Result: 1.0

Query: Entry `COc1cc(/C=C/C(=O)c2ccc(S(=O)(=O)NCCNc3nc(Nc4ccc(F)cc4)nc(N(C)C)n3)cc2)cc(OC)c1OC` please
Result: 0.0

Query: Entry `COc1cccc(COc2ccc(/C=C3\Oc4cc(O)ccc4C3=O)cc2)c1` please
Result: 0.0

Query: Entry `O=C(CNc1nc(-c2ccccc2)cs1)Nc1ccc(Cl)cc1` please
Result: 1.0

Query: Entry `CCCCCCCCCCCCCCCCCCCC(=O)NCCc1c[nH]c2ccc(OC(=O)CCCC(=O)OCCOOCCOOCCOOCCOOCCOOCCOOCCOOCCOOCCOOCCOOCCOOCCOC)cc12` please
Result: 0.0

Query: Entry `COc1ccc(-c2cc(-c3cc(C(=O)c4ccccc4)n4ccc(C)cc34)nc(N)c2C#N)cc1` please
Result: 0.0

Query: Entry `O=C(c1ccccc1)n1ccc(-c2cc3cc(Br)ccc3oc2=O)n1` please
Result: 0.0

Query: Entry `Cc1noc2c(Cc3ccc([N+](=O)[O-])cc3)nn(CC(=O)N/N=C/c3ccc(Cl)cc3)c(=O)c12` please
Result: 0.0

Query: Entry `COc1cccc2nc(Nc3cccc(NC(=O)c4ccc(CN5CCCN(C)CC5)c(C(F)(F)F)c4)c3)ccc12` please
Result: 1.0

Query: Entry `Cc1ccc(-c2nc3ccc(C(=O)N=Nc4c(O)[nH]c5ccc([N+](=O)[O-])cc45)cc3[nH]2)cc1` please
Result: 0.0

Query: Entry `CNCc1cccc2c1OCCCCCC[C@@](C)(O)CC1(CC1)S(=O)(=O)c1ccc(cc1)-c1cnc(N)c(n1)C(=O)N2` please
Result: 1.0

Query: Entry `COc1ccsc1/C=N/NC(=O)c1[nH]c2ccc(Br)cc2c1-c1ccccc1` please
Result: 0.0

Query: Entry `COc1ccc(NC(=O)CSc2nnc(-c3ccc4nc(-c5ccc(Cl)cc5)[nH]c4c3)o2)cc1` please
Result: 1.0

Query: Entry `CN1CCN(c2ccc(C(=O)/C=C/c3cc(C(F)(F)F)ccc3Cl)cc2)CC1` please
Result: 1.0

Query: Entry `COc1ccc(-c2nc(S(=O)(=O)c3ccc(C)cc3)c(S(C)(=O)=O)o2)cc1` please
Result: 1.0

Query: Entry `COc1ccc2[nH]cc(/C=N/Nc3cccc(Cl)n3)c2c1` please
Result: 0.0

Query: Entry `COc1cccc(-c2nn(-c3ccccc3)cc2-c2ccnc(NCCCNC(=O)Nc3ccc(F)cc3)c2)c1` please
Result: 1.0

Query: Entry `O=C(Nc1ccc(OCc2ccccc2)cc1)Nc1ccc(Cl)c(C(F)(F)F)c1` please
Result: 1.0

Query: Entry `Cn1cc(-c2cc(N)n3nc(-c4c[nH]c5ccc(Br)cc45)cc3n2)c2cccnc21` please
Result: 1.0

Query: Entry O=C(c1ccc(Cl)cc1)C1[C@H](c2ccccc2Br)[C@@H](c2ccccc2)NC12C(=O)Nc1ccc(Cl)cc12 (some centres undefined) please
Result: 0.0

Query: Entry CC(=O)NS(=O)(=O)c1ccc(NC(=O)CSC2=NC(c3ccccc3)C(C(C)=O)=C(C)N2)cc1 (centres undefined) please
Result: 0.0

Query: Entry `COc1ccc2nc(Cl)c(-c3cc(-c4ccccc4)nc(N)n3)cc2c1` please
Result: 0.0

Query: Entry O=C(c1ccc(O)cc1)C1[C@H](c2ccccc2Br)[C@@H](c2ccccc2)NC12C(=O)Nc1ccc(Br)cc12 (some centres undefined) please
Result: 0.0

Query: Entry `Cc1ccc(C(=O)N/C(=C2/OCCN2C)[P+](c2ccccc2)(c2ccccc2)c2ccccc2)cc1` please
Result: 0.0

Query: Entry `CC(C)C1=C[C@@]23CC[C@@H]4[C@](C)(CCC[C@]4(C)C(=O)NCc4ccccc4)[C@H]2C[C@@H]1[C@H]1C(=O)CCC(=O)[C@H]13` please
Result: 0.0

Query: Entry `CCCCSc1nc(Nc2ccc(/C(C)=N/NC(N)=S)cc2)c(C#N)c(-c2ccccc2)n1` please
Result: 0.0

Query: Entry `COc1ccc2[nH]c(O)c(N=NC(=O)c3cc(-c4ccc(C)cc4)nc4ccccc34)c2c1` please
Result: 0.0

Query: Entry `O=C(Nc1cccc(C(F)(F)F)c1)c1cncc(C#Cc2cnc3cccnn23)c1` please
Result: 0.0

Query: Entry `O=c1oc2ccc(-c3ccc(F)cc3F)cc2c(=O)n1-c1ccc(F)c(Cl)c1` please
Result: 1.0
